Biological target: panel of 442 kinases (Homo sapiens)
Construct: purchased KINOMEscan
Type: binding
Conditions: Compound Concentration 10 µM
Description: We assessed the selectivity of members of this scaffold using the KINOMEscan methodology across a near comprehensive panel of 442 kinases [[18,27]].
// values below are reported KINOMEscan: CLK1
Lab note: jot down the number only; don't add units.

COMPOUND SMILES: CCOc1cc(C(=O)N2CCC(N3CCN(C)CC3)CC2)ccc1Nc1ncc2c(n1)N(C1CCCC1)c1ccccc1C(=O)N2C
TARGET UNDER TEST: panel of 442 kinases (Homo sapiens)
MEASURED QUANTITY: KINOMEscan: CLK1
VALUE: 100

COMPOUND SMILES: COc1cc(C(=O)N2CCC(N3CCN(C)CC3)CC2)ccc1Nc1ncc2c(n1)N1CCc3cccc(c31)C(=O)N2C
TARGET UNDER TEST: panel of 442 kinases (Homo sapiens)
MEASURED QUANTITY: KINOMEscan: CLK1
VALUE: 11

COMPOUND SMILES: COc1cc(C(=O)N2CCC(N3CCN(C)CC3)CC2)ccc1Nc1ncc2c(n1)N(C1CCCC1)c1ccccc1C(=O)N2C
TARGET UNDER TEST: panel of 442 kinases (Homo sapiens)
MEASURED QUANTITY: KINOMEscan: CLK1
VALUE: 100

In the following, a different compound is considered.
Value of KINOMEscan: CLK1 reported for the compound `COc1cc(C(=O)N2CCC(N3CCN(C)CC3)CC2)ccc1Nc1ncc2c(n1)N(C)c1ccccc1C(=O)N2C` is 28

---

Biological target: panel of 442 kinases (Homo sapiens)
Construct: purchased KINOMEscan
Type: binding
Conditions: kinase ULK1; compound concentration 10 µM
MEASURED QUANTITY: % Ctrl, ULK1 (% Ctrl)
Provide the reading as a plain figure in % Ctrl.

Please review the following examples before continuing.
COMPOUND SMILES: CCOc1cc(C(=O)N2CCC(N3CCN(C)CC3)CC2)ccc1Nc1ncc2c(n1)N(C1CCCC1)c1ccccc1C(=O)N2C
MEASUREMENT UNIT: % Ctrl
% Ctrl, ULK1: 100
//
COMPOUND SMILES: COc1cc(C(=O)N2CCC(N3CCN(C)CC3)CC2)ccc1Nc1ncc2c(n1)N(C1CCCC1)c1ccccc1C(=O)N2C
MEASUREMENT UNIT: % Ctrl
% Ctrl, ULK1: 100
//
COMPOUND SMILES: COc1cc(C(=O)N2CCC(N3CCN(C)CC3)CC2)ccc1Nc1ncc2c(n1)N(C)c1ccccc1C(=O)N2C
MEASUREMENT UNIT: % Ctrl
% Ctrl, ULK1: 80

In the following, a different molecule is considered.
Value of % Ctrl, ULK1 reported for the molecule `COc1cc(C(=O)N2CCC(N3CCN(C)CC3)CC2)ccc1Nc1ncc2c(n1)N1CCc3cccc(c31)C(=O)N2C` is 100

---

// values below are reported KINOMEscan: MYLK
Target: panel of 442 kinases (Homo sapiens, UniProt Q15746)
Construct: purchased KINOMEscan
Sequence (Q15746 whole entry): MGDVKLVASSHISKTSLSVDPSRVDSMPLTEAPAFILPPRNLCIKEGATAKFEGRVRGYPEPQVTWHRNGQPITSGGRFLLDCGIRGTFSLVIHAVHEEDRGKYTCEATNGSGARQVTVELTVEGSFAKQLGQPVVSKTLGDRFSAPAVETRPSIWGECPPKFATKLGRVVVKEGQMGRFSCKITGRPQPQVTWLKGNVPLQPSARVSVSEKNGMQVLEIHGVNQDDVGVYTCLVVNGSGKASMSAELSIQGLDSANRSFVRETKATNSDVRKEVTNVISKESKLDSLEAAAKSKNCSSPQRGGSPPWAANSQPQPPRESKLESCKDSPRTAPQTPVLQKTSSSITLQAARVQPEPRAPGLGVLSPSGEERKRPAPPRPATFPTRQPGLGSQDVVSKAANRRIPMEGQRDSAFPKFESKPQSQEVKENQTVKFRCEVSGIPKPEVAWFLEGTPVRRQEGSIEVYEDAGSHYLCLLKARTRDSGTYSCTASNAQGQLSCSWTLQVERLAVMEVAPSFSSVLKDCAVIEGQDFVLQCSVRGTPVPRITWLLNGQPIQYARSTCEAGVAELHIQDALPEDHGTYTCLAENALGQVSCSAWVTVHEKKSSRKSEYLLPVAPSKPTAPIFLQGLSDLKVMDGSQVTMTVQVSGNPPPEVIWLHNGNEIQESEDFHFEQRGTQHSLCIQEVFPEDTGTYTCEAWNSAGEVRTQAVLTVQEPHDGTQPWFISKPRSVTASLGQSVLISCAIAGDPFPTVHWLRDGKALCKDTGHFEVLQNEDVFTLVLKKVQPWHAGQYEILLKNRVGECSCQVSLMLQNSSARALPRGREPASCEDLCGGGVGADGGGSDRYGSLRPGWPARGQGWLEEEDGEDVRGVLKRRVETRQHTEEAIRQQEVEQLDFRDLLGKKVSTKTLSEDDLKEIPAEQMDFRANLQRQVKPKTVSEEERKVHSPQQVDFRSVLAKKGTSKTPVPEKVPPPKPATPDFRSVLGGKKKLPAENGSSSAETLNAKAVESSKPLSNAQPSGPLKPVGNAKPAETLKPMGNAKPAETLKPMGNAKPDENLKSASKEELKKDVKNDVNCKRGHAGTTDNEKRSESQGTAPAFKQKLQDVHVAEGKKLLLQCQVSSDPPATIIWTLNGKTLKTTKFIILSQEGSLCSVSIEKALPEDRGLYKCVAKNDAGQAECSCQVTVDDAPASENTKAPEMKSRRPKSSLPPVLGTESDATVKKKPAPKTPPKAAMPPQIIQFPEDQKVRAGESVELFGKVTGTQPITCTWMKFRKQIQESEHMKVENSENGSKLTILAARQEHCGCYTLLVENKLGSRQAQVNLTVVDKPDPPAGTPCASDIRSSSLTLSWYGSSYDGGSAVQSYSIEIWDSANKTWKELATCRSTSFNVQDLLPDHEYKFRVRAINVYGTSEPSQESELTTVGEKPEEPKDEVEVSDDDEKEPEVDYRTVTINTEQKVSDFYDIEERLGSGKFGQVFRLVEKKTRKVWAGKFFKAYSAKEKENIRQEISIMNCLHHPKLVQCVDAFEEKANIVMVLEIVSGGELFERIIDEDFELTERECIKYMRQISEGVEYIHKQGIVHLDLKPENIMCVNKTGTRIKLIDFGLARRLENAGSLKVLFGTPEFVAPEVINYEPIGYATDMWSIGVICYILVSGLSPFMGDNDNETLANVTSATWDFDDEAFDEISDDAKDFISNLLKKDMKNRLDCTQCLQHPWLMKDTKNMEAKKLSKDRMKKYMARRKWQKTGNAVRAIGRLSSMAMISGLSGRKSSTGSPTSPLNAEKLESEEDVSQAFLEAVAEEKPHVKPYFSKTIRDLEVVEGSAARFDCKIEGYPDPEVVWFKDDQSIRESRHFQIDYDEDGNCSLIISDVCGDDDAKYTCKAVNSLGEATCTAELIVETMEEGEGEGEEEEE
Type: binding
Details: Compound Concentration 10 µM

COMPOUND: COc1cc(C(=O)N2CCC(N3CCN(C)CC3)CC2)ccc1Nc1ncc2c(n1)N(C1CCCC1)c1ccccc1C(=O)N2C [Compound 25]
VALUE: 73

Value of KINOMEscan: MYLK reported for the compound CCOc1cc(C(=O)N2CCC(N3CCN(C)CC3)CC2)ccc1Nc1ncc2c(n1)N(C1CCCC1)c1ccccc1C(=O)N2C [Compound 26] is 98

Value of KINOMEscan: MYLK reported for the compound COc1cc(C(=O)N2CCC(N3CCN(C)CC3)CC2)ccc1Nc1ncc2c(n1)N(C)c1ccccc1C(=O)N2C [15 (LRRK2-IN-1)] is 8.7

Value of KINOMEscan: MYLK reported for the compound COc1cc(C(=O)N2CCC(N3CCN(C)CC3)CC2)ccc1Nc1ncc2c(n1)N1CCc3cccc(c31)C(=O)N2C [Compound 24] is 2.9
